- Target under test: UniProt:A0A5G2QT35
- Sequence (A0A5G2QT35 1-497): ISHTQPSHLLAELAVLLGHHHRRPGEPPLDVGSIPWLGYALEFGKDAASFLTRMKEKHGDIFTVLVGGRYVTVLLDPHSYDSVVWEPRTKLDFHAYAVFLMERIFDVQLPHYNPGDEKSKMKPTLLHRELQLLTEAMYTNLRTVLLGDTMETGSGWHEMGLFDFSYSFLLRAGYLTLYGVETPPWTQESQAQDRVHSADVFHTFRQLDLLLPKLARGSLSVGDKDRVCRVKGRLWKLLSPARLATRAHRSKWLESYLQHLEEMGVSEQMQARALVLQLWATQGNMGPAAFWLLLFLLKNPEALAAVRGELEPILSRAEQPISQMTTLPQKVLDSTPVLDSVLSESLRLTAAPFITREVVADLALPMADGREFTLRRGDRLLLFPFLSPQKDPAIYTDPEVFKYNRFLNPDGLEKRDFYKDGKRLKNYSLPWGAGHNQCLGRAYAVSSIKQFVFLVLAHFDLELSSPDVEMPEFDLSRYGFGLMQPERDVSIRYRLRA
Structures can show the parent of a compound that is named as a salt.
Property name: IC50 (µM)

- N#CCCn1cc(Cn2ccnc2)c2ccccc21 [Example 1, fumarate]: 24
- NC(=O)Cn1cc(Cn2ccnc2)c2ccccc21 [Example 27]: 100
- O=C(NCCCn1cc(Cn2ccnc2)c2ccccc21)Nc1ccccc1 [Example 47]: 40
- c1ccc2c(c1)c(Cn1ccnc1)cn2CCc1nnn[nH]1 [Example 42]: 45

---

- Target under test: thromboxane synthetase (Homo sapiens, UniProt P24557)
- Construct: human platelet microsomes
- Sequence (P24557 1-533): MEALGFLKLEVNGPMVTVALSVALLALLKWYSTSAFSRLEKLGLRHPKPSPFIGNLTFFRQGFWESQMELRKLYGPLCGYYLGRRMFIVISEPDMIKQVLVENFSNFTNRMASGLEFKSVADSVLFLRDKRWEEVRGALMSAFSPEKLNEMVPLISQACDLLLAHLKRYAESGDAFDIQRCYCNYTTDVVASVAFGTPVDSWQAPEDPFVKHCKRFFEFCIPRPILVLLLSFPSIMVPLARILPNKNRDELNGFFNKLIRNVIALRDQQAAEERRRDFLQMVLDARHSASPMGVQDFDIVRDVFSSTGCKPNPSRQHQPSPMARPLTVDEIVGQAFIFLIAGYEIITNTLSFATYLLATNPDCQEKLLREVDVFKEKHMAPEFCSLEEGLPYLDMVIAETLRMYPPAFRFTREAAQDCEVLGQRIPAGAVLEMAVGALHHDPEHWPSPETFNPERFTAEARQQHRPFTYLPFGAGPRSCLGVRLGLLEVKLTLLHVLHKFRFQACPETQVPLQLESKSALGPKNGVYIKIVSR
- Assay name: Thromboxane A2 (TxA2) synthetase inhibition, human platelet microsomes, rabbit aorta bioassay
- Cond: test compound pre-incubated with enzyme for 5 minutes, read-out: Molar concentration causing 50% inhibition of thromboxane synthetase
pIC50: −log10 of the molar value. Counter-ions that a name gives are not always drawn.
Label Met when pIC50 >= 9; otherwise Not met.

* CCOC(=O)Cn1cc(Cn2ccnc2)c2ccccc21 [Example 10] | Not met
* O=C(O)c1cccc(Cn2cc(Cn3ccnc3)c3ccccc32)c1 [Example 25] | Not met
* N#CCCn1cc(Cn2ccnc2)c2ccccc21 [Example 1, fumarate] | Not met
* O=C(O)CCn1c(C2CC2)c(Cn2ccnc2)c2ccccc21 [Example 14] | Met

---

- Target under test: thromboxane synthetase (Homo sapiens, UniProt P24557)
- Construct: human platelet microsomes
- Assay name: Thromboxane A2 (TxA2) synthetase inhibition, human platelet microsomes, rabbit aorta bioassay
- Cond: test compound pre-incubated with enzyme for 5 minutes, read-out: Molar concentration causing 50% inhibition of thromboxane synthetase
Flag rule - IC50 less than 2 nM flags YES; the remaining entries get NO.

* O=C(O)c1ccc(Cn2cc(Cn3ccnc3)c3ccccc32)cc1 | YES
* CC(C)c1c(Cn2ccnc2)c2ccccc2n1CCC(N)=O | NO
* O=S(=O)(NCCCn1cc(Cn2ccnc2)c2ccccc21)c1ccccc1 | YES
* NC(=O)Cn1cc(Cn2ccnc2)c2ccccc21 | NO
* N#Cc1ccc(Cn2cc(Cn3ccnc3)c3ccccc32)cc1 | NO

---

- Target under test: prostacyclin synthetase (Sus scrofa)
Where a name gives a salt, the structure may show the parent alone.
Property name: IC50

- O=C(O)c1cccc(Cn2cc(Cn3ccnc3)c3ccccc32)c1: > 100 µM
- O=C(O)CCn1cc(Cn2ccnc2)c2cc(Br)ccc21: > 100 µM
- O=C(O)CCn1cc(Cn2ccnc2)c2ccccc21 [Example 11, fumarate monohydrate]: > 100 µM
